Field: Ki. Provide a value for each of the compounds that follow.
- TARGET_DESC: adrenergic receptor subtype α1
- TEST_NAME: radio ligand binding, pig cortex membranes, highly affine binding site on labelling with [3H]Ketanserin
- STUDY_CONDITIONS: read-out: Ki values α1 (footnote c); pα1; derived from the highly affine binding site on labelling with [3H]Ketanserin
Could you give the number and then its unit, please?

A selection of reference data follows.
>  <STRUCTURE_SMILES>
COc1ccccc1N1CCN(CCCCNC(=O)c2cc3cc(C#N)ccc3[nH]2)CC1

>  <OBSERVED_PROPERTY>
Ki

>  <VALUE_MEASURED>
0.024 µM

$$$$
>  <STRUCTURE_SMILES>
COc1ccccc1N1CCN(CCCCNC(=O)c2cc3ccccc3o2)CC1

>  <OBSERVED_PROPERTY>
Ki

>  <VALUE_MEASURED>
0.014 µM

$$$$
>  <STRUCTURE_SMILES>
COc1ccccc1N1CCN(CCCCNC(=O)c2cc3cc(C#N)ccc3o2)CC1

>  <OBSERVED_PROPERTY>
Ki

>  <VALUE_MEASURED>
0.0082 µM

$$$$

In the following, a different compound is considered.
Prompt line: Could you share which Ki value was measured for COc1ccccc1N1CCN(CCCCNC(=O)c2cc3ccccc3[nH]2)CC1 ?
Response line: 0.011 µM

----------
- TARGET_DESC: D3 receptor (Homo sapiens, UniProt P35462)
- Sequence (P35462 whole entry): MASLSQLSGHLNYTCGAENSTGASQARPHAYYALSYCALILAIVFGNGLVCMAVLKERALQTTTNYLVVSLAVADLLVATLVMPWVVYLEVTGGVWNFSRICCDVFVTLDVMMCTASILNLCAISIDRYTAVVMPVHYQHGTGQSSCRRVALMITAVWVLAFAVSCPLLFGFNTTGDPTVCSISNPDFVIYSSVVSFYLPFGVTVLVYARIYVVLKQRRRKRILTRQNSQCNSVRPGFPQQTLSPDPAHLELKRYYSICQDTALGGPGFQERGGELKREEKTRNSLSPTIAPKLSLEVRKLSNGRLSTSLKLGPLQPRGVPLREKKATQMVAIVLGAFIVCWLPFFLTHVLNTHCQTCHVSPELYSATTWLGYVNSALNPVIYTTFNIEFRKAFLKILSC
- TEST_NAME: radio ligand binding assay, CHO cell membrane homogenates, [3H]Spiperon, D3
- Design: expressed in transfected cells; host or cells: CHO cells (membrane homogenates)
- STUDY_CONDITIONS: hD3; average of 2-9 experiments in triplicate; read-out: Ki-values D3
Field: pKi. Provide a value for each of the molecules that follow.
Answers are plain numbers, as −log10 of the molar value.

>  <MOLECULE>
COc1ccccc1N1CCN(CCCCNC(=O)c2cc3cc(C#N)ccc3o2)CC1 [Example 7]

>  <TARGET_DESC>
D3 receptor (Homo sapiens, UniProt P35462)

>  <VALUE_MEASURED>
8.38

$$$$

Record pKi per entry; entries follow.
1. O=C(NCCCCN1CCN(c2cccc(Cl)c2Cl)CC1)c1cc2ccccc2o1 [Example 4]
2. COc1ccccc1N1CCN(CCCCNC(=O)c2cc3cc(Br)ccc3o2)CC1 [Example 5]
3. O=C(NCCCCN1CCN(c2cccc(Cl)c2Cl)CC1)c1cc2ccccc2[te]1 [Example 9]

Response line:
[8.92, 9.16, 9.26]

----------
- TARGET_DESC: α1 receptors
- TEST_NAME: competitive experiment with the α1 selective radio ligand [3H]Prazosin
- STUDY_CONDITIONS: read-out: Ki values α1 (footnote d); pα1; competitive experiment with [3H]Prazosin
Field: pKi. Provide a value for each of the compounds that follow.
Numbers only, as −log10 of the molar value.

>  <COMPOUND>
O=C(NCCCCN1CCN(c2cccc(Cl)c2Cl)CC1)c1cc2cc(Br)ccc2[nH]1 [Example 14]

>  <TARGET_DESC>
α1 receptors

>  <pKi>
6.30

$$$$
>  <COMPOUND>
COc1ccccc1N1CCN(CCCCNC(=O)c2cc3cc(C#N)ccc3s2)CC1 [Example 18]

>  <TARGET_DESC>
α1 receptors

>  <pKi>
8.54

$$$$
>  <COMPOUND>
N#Cc1ccc2[nH]c(C(=O)NCCCCN3CCN(c4cccc(Cl)c4Cl)CC3)cc2c1 [Example 25]

>  <TARGET_DESC>
α1 receptors

>  <pKi>
6.66

$$$$
>  <COMPOUND>
O=C(NCCCCN1CCN(c2cccc(Cl)c2Cl)CC1)c1cc2ccccc2[te]1 [Example 9]

>  <TARGET_DESC>
α1 receptors

>  <pKi>
7.00

$$$$
>  <COMPOUND>
COc1ccccc1N1CCN(CCCCNC(=O)c2cc3ccccc3[te]2)CC1 [Example 8]

>  <TARGET_DESC>
α1 receptors

>  <pKi>
8.46

$$$$
>  <COMPOUND>
O=C(NCCCCN1CCN(c2cccc(Cl)c2Cl)CC1)c1cc2ccccc2s1 [Example 2]

>  <TARGET_DESC>
α1 receptors

>  <pKi>
6.43

$$$$
>  <COMPOUND>
COc1ccccc1N1CCN(CCCCNC(=O)c2cc3cc(C#N)ccc3[nH]2)CC1 [Example 11]

>  <TARGET_DESC>
α1 receptors

>  <pKi>
8.23

$$$$
>  <COMPOUND>
O=C(NCCCCN1CCN(c2cccc(Cl)c2Cl)CC1)c1cc2cc(Br)ccc2s1 [Example 23]

>  <TARGET_DESC>
α1 receptors

>  <pKi>
6.49

$$$$

In the following, a different compound is considered.
Prompt line: Could you share which pKi value was measured for O=C(NCCCCN1CCN(c2cccc(Cl)c2Cl)CC1)c1cc2cc(Br)ccc2o1 [Example 6] ?
Response line: 5.89
